Below: a set of entries, each annotated with reported maximum recommended daily dose (mmol/kg-bw/day).
# System: human maximum recommended daily dose, FDA database
# PROCEDURE TEXT: DSSTox (FDAMDD) FDA Maximum (Recommended) Daily Dose Database
# TEST CONDITIONS: TherapeuticCategory: prothrombogenic vitamin; hits give low values
QUANTITY: maximum recommended daily dose (mmol/kg-bw/day)

>>> print(df.to_string())
                      smiles_representation    result
0                    CC1=CC(=O)c2ccccc2C1=O  0.000193
1                       Cc1cc(O)c2ccccc2c1O  0.000959
2  CC1=C(C/C=C(\C)CCC[C@H](C)CCC[C@H](C)CCCC(C)C)C(=O)c2ccccc2C1=O  0.000925

----------
# Tested on: human maximum recommended daily dose, FDA database
# PROCEDURE TEXT: DSSTox (FDAMDD) FDA Maximum (Recommended) Daily Dose Database
# TEST CONDITIONS: TherapeuticCategory: tyrosine hydroxylase inhibitor; hits give low values
QUANTITY: maximum recommended daily dose (mmol/kg-bw/day)

>>> print(df.to_string())
          smiles_representation  measured_number
0  C[C@](N)(Cc1ccc(O)cc1)C(=O)O            0.342

----------
# Test system: human maximum recommended daily dose, FDA database
# PROCEDURE TEXT: DSSTox (FDAMDD) FDA Maximum (Recommended) Daily Dose Database
# TEST CONDITIONS: TherapeuticCategory: anabolic steroid; hits give low values
QUANTITY: maximum recommended daily dose (mmol/kg-bw/day)

                      smiles_representation  measured_number
0  C[C@]12CC[C@H]3[C@@H](CCC4=CC(=O)CC[C@@H]43)[C@@H]1CC[C@@H]2OC(=O)CCc1ccccc1          0.00819

----------
# System: human maximum recommended daily dose, FDA database
# PROCEDURE TEXT: DSSTox (FDAMDD) FDA Maximum (Recommended) Daily Dose Database
# TEST CONDITIONS: TherapeuticCategory: antimalarial; hits give low values
QUANTITY: maximum recommended daily dose (mmol/kg-bw/day)

                                   compound                                    target  measured_number
0      CC(C)N=C(N)/N=C(\N)Nc1ccc(Cl)c(Cl)c1  human maximum recommended daily dose, FDA database          0.00116
1    CCN(CC)Cc1cc(Nc2ccnc3cc(Cl)ccc23)ccc1O  human maximum recommended daily dose, FDA database          0.00936
2          CC1(C)N=C(N)N=C(N)N1c1ccc(Cl)cc1  human maximum recommended daily dose, FDA database          0.00132
3          CC(C)N=C(N)/N=C(\N)Nc1ccc(Cl)cc1  human maximum recommended daily dose, FDA database           0.0131
4  CCCCN(CCCC)CCC(O)c1cc2c(Cl)cc(Cl)cc2c2cc(C(F)(F)F)ccc12 (configuration not stated)  human maximum recommended daily dose, FDA database             0.05
5             CCc1nc(N)nc(N)c1-c1ccc(Cl)cc1  human maximum recommended daily dose, FDA database          0.00503
6  COc1cc(NC(C)CCCN)c2ncccc2c1 (configuration not stated)  human maximum recommended daily dose, FDA database          0.00289

----------
# System: human maximum recommended daily dose, FDA database
# PROCEDURE TEXT: DSSTox (FDAMDD) FDA Maximum (Recommended) Daily Dose Database
# TEST CONDITIONS: TherapeuticCategory: antipruritic; hits give low values
QUANTITY: maximum recommended daily dose (mmol/kg-bw/day)

>>> print(df.to_string())
                                   compound                                    target  measured_number
0  CN1CCC(CN2c3ccccc3Sc3ccccc32)C1 (configuration not stated)  human maximum recommended daily dose, FDA database          0.00169
1  CC(CN(C)C)CN1c2ccccc2Sc2ccccc21 (configuration not stated)  human maximum recommended daily dose, FDA database           0.0056

----------
# System: human maximum recommended daily dose, FDA database
# PROCEDURE TEXT: DSSTox (FDAMDD) FDA Maximum (Recommended) Daily Dose Database
# TEST CONDITIONS: TherapeuticCategory: anxiolytic; anticonvulsant; hits give low values
QUANTITY: maximum recommended daily dose (mmol/kg-bw/day)

In [3]: df
Out[3]:
                                   molecule  measured_number
0  CC(C)(O)C(C)(O)c1ccc(Cl)cc1 (stereo unspecified)           0.0932

----------
# System: human maximum recommended daily dose, FDA database
# PROCEDURE TEXT: DSSTox (FDAMDD) FDA Maximum (Recommended) Daily Dose Database
# TEST CONDITIONS: TherapeuticCategory: intestinal function diagnostic aid; hits give low values
# Excerpt: The Food and Drug Administration (FDA) Center for Drug Evaluation and Research, Office of Pharmaceutical Science, Informatics and Computational Safety Analysis Staff's Maximum Recommended Daily Dose (FDAMDD) database contains values for over 1200 pharmaceuticals listed in Martindale: The Extra Pharmacopoeia (1973, 1983, and 1993) and The Physicians' Desk Reference (1995 and 1999). […]
QUANTITY: maximum recommended daily dose (mmol/kg-bw/day)

>>> df
                                   compound  measured_number
0  OC1OC[C@@H](O)[C@H](O)[C@H]1O (stereo partly specified)             2.78

----------
# Tested on: human maximum recommended daily dose, FDA database
# PROCEDURE TEXT: DSSTox (FDAMDD) FDA Maximum (Recommended) Daily Dose Database
# TEST CONDITIONS: TherapeuticCategory: antimigraine; vasoconstrictor; hits give low values
QUANTITY: maximum recommended daily dose (mmol/kg-bw/day)

                      smiles_representation  measured_number
0  CNS(=O)(=O)CCc1ccc2[nH]cc(C3CCN(C)CC3)c2c1         0.000248

----------
# Test system: human maximum recommended daily dose, FDA database
# PROCEDURE TEXT: DSSTox (FDAMDD) FDA Maximum (Recommended) Daily Dose Database
# TEST CONDITIONS: TherapeuticCategory: antiepileptic; hits give low values
QUANTITY: maximum recommended daily dose (mmol/kg-bw/day)

>>> df
                      smiles_representation  measured_number
0  CC1(C)O[C@@H]2[C@@H](CO[C@@]3(COS(N)(=O)=O)OC(C)(C)O[C@@H]23)O1           0.0197

----------
# Tested on: human maximum recommended daily dose, FDA database
# PROCEDURE TEXT: DSSTox (FDAMDD) FDA Maximum (Recommended) Daily Dose Database
# TEST CONDITIONS: TherapeuticCategory: antiarthritic; hits give low values
QUANTITY: maximum recommended daily dose (mmol/kg-bw/day)

In [3]: df
Out[3]:
                      smiles_representation                                    target  measured_number
0  N[C@@H]1[C@@H](O)[C@H](O)[C@@H](CO)O[C@H]1O  human maximum recommended daily dose, FDA database            0.558

----------
# System: human maximum recommended daily dose, FDA database
# PROCEDURE TEXT: DSSTox (FDAMDD) FDA Maximum (Recommended) Daily Dose Database
# TEST CONDITIONS: TherapeuticCategory: adrenocortical suppressant; treatment of breast cancer; hits give low values
QUANTITY: maximum recommended daily dose (mmol/kg-bw/day)

>>> print(df.to_string())
                      smiles_representation  measured_number
0  C[C@]12CC[C@H]3[C@@H](CC[C@@]45O[C@@H]4C(O)=C(C#N)C[C@]35C)[C@@H]1CC[C@@H]2O           0.0243

----------
Below: a set of entries, each annotated with reported maximum recommended daily dose (mmol/kg-bw/day).
# Test system: human maximum recommended daily dose, FDA database
# PROCEDURE TEXT: DSSTox (FDAMDD) FDA Maximum (Recommended) Daily Dose Database
# TEST CONDITIONS: TherapeuticCategory: pigmentation agent; hits give low values
QUANTITY: maximum recommended daily dose (mmol/kg-bw/day)

>>> df
            smiles_representation  measured_number
0  Cc1cc2cc3c(C)cc(=O)oc3c(C)c2o1         0.000732
1       COc1c2occc2cc2ccc(=O)oc12          0.00278

----------
# System: human maximum recommended daily dose, FDA database
# PROCEDURE TEXT: DSSTox (FDAMDD) FDA Maximum (Recommended) Daily Dose Database
# TEST CONDITIONS: TherapeuticCategory: antiparkinsonian; dopamine receptor agonist; hits give low values
# Excerpt: The Food and Drug Administration (FDA) Center for Drug Evaluation and Research, Office of Pharmaceutical Science, Informatics and Computational Safety Analysis Staff's Maximum Recommended Daily Dose (FDAMDD) database contains values for over 1200 pharmaceuticals listed in Martindale: The Extra Pharmacopoeia (1973, 1983, and 1993) and The Physicians' Desk Reference (1995 and 1999). […]
QUANTITY: maximum recommended daily dose (mmol/kg-bw/day)

>>> print(df.to_string())
                      smiles_representation    result
0  CCCN1C[C@H](CSC)C[C@@H]2c3cccc4[nH]cc(c34)C[C@H]21  0.000159
1                  CCCN[C@H]1CCc2nc(N)sc2C1  0.000473
